Value source: a melting point compilation (Tetko et al.)

quantity: melting point

Below are worked cases with known answers.
COCCc1nc2cc(N)ccc2o1	44 to 46 °C
O=C(O)c1cc(F)ccc1-c1ccccc1	117 to 119 °C
NC(=S)CO	54 to 56 °C

# input Which melting point value is on record for CC1CCC2(CC1)NC(=O)N(N)C2=O (centres undefined) ?
# output 118 to 120 °C

# input Which melting point value is on record for Cc1cc(C)n2nc(N)nc2n1 ?
# output 369 to 371 °C

# input Which melting point value is on record for Cc1ccc(-c2nnc(CCC(=O)O)o2)cc1 ?
# output 169 to 171 °C

# input Which melting point value is on record for Cc1ccc(-c2nc(-c3ccccc3)sc2CC(=O)O)cc1 ?
# output 165 to 167 °C

# input Which melting point value is on record for Cc1cc(S(=O)(=O)Cl)cc(C(=O)O)c1C ?
# output 179 to 181 °C
